Multiple publications report pIC50 for Coagulation factor X (Homo sapiens); what follows is a combined list.
pIC50: −log10 of the molar value.

Example compounds with recorded pIC50:
smiles_repr	value_type	measured
CC(C)Nc1ccc(-c2cccc(N)c2)c(CC(=O)NCc2ccc(C(=N)N)cc2)[n+]1[O-]	pIC50	< 4.00
Cc1nc(N)ccc1CNC(=O)Cn1c(C)cnc(NNS(=O)(=O)c2ccccc2F)c1=O	pIC50	≤ 4.00

# context switch: different compound, same pIC50
input: Requested read-out pIC50, target or system Coagulation factor X (Homo sapiens), entry "N#CN=C1NCCN1c1ccc(NC(=O)[C@@H](NC(=O)Nc2ccc(Cl)cc2)c2cccs2)cc1"
output: 7.27
